# experiment: NCI Yeast Anticancer Drug Screen. Data for the cln2 rad14 strain (AID 165);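 further: 0% = growth equal to vehicle treated cultures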
# experimental.conditions: S. cerevisiae cln2 rad14 strain, at 50.0 µM (retest, dose inferred, filed as 5.0), stronger effect = higher value
Compounds without any hit were thinned out: in the full panel of roughly 79,000, 15% have a hit.
Each entry belongs to exactly one class, chosen by where its growth inhibition falls: bin 0 (below 20%), bin 1 (20% to below 90%), bin 2 (90% or more)

Study these solved cases before continuing.
Input: Input "N#CSCc1ccc(Cl)c(CSC#N)c1" ; output its category
Output: bin 2

Input: Assign a category based on measured growth inhibition for Cc1ccc(C)c(NC(=O)CC2SC(=Nc3ccccc3Cl)NC2=O)c1 (stereo not given) and give only the class name.
Output: bin 1

Input: For this compound, which bin applies? "CCOC(=O)NCCCc1ccc2oc3ccccc3c2c1"
Output: bin 2

Input: Hi, small favor: classify O=C(O)C(CS)Nc1c2ccccc2nc2ccccc12 (stereo not given) by its growth inhibition when you get a moment.
Output: bin 1

Input: Textbook exercise: identify the category of the compound given here, "Fc1ccc(CN2COc3c(cc(Cl)c4cccnc34)C2)cc1" , according to its measured value.
Output: bin 2

Input: // bin(item) where item = "ClC1=C(Cl)C2c3ccccc3C1c1ccccc12"
Output: bin 2

Input: For this compound, which bin applies? "Nc1nc2c(ccc3ccccc32)s1"
Output: bin 1

Input: Which class holds CCCCC(CC)(CCC)CCN (stereo not given) ?
Output: bin 1

Input: Kindly state the category for this compound: COCCN1C(=O)C2c3[nH]c4ccccc4c3C3CCC(C(C)(C)C)CC3C2C1=O (stereo not given)
Output: bin 2

Input: Band for "Cc1nc(Nc2c(C)cccc2C)c2c(C)c[nH]c2n1" ?
Output: bin 0

Continuing:
Input: Each compound maps to one class by growth inhibition. Which class for "O=C(NNC(=O)c1cccc(C(=O)NNC(=O)c2ccc(Cl)c(Cl)c2)n1)c1ccc(Cl)c(Cl)c1" ?
Output: bin 1

Input: Hey, which category is "c1ccc(CN2CCc3[nH]c4ccccc4c3C2)cc1" in, do you know?
Output: bin 0

Input: Assign a category based on measured growth inhibition for "CSc1nc(SC)c2cnn(Cc3ccccc3)c2n1" and give only the class name.
Output: bin 0

Input: // bin(item) where item = "Nc1ccc(SSc2ccc(N)cc2)cc1"
Output: bin 1

Input: State the band of "C[n+]1c(/C=C/c2ccc([N+](=O)[O-])cc2)ccc2ccccc21"
Output: bin 1

Input: Please let me know in which category the item "COC(=O)c1nc(=S)[nH]c(C(=O)OC)c1C(=O)c1ccc2ccccc2c1" belongs.
Output: bin 2

Input: // return the class label for Cc1cccc(C)c1N1C(=O)C(=O)C(c2nc3ccccc3s2)/C(=N/NC(=O)c2ccccc2O)C1=O (stereo not given)
Output: bin 1

Input: Please let me know in which category the item CC(=O)OCC1OC(OC(C)=O)C(On2nnc3c(-c4ccccc4)c(C)nn32)C(OC(C)=O)C1OC(C)=O (stereo not given) belongs.
Output: bin 1

Input: Sort "CSC(SC)=C(C#N)C(=O)Nc1ccc(C)cc1" into one of the categories.
Output: bin 1

Input: Band assignment needed for "FC(F)(F)c1[nH]nc(-c2cc3ccccc3o2)c1N=NN1CCOCC1" please.
Output: bin 2

Input: Using the reported growth inhibition, which band applies to CCCCCCC(=O)CC(SCCN)c1ccccc1Cl (stereo not given) ?
Output: bin 2
